# Assay comment: qHTS assay to identify small molecule agonists of the hypoxia (HIF-1) signaling pathway - cell viability counter screen (AID 1224844); note: nearly all actives have a fitted effect of over 50% in size
# Details: HRE-bla ME-180 viability, CellTiter-Glo luminescence, 17 h; series mostly up to 76.8 µM
# Description: National Center for Advancing Translational Sciences [NCATS] NIH Chemical Genomics Center [NCGC] U.S. Environmental Protection Agency [EPA] National Institutes of Environmental Health Sciences [NIEHS] National Toxicology Program [NTP] U.S. Food and Drug Administration [FDA] Hypoxia-inducible factor-1 (HIF-1) is the major hypoxia-regulated transcription factor that controls cellular responses to low oxygen concentration. […]
Inconclusive results are not listed. Activity calls are given as the source filed them. Calls come from the whole dose curve.
Would you mind answering with one of these outcomes? class 1 (active), class 0 (inactive)

Exercise: Outcome? `CCCCCCCCCCCCCCCC(=O)OC[C@H](O)[C@H]1OC(=O)C(O)=C1O`
Solution: class 1

Exercise: Outcome? Cc1c(C)c2c(c(C)c1O)CCC(C)(COc1ccc(CC3SC(=O)NC3=O)cc1)O2 (configuration not stated)
Solution: class 0

Exercise: Outcome? CCCN(CCC)C(=O)C(CCC(=O)OCCCN1CCN(CCOC(=O)Cc2c(C)n(C(=O)c3ccc(Cl)cc3)c3ccc(OC)cc23)CC1)NC(=O)c1ccccc1 (configuration not stated)
Solution: class 1

Exercise: Outcome? `CCCCCCCC/C=C/CCCCCCCC1=NCCN1CCO`
Solution: class 1

Exercise: Outcome? `Oc1cc2ccccc2c2ccccc12`
Solution: class 1

New cases:
Exercise: Outcome? `O=c1[nH]sc2ccccc12`
Solution: class 1

Exercise: Outcome? `COc1cc(-c2nc(NC(=O)c3cc4cc(C)cc(C)c4n3CC(=O)O)sc2CCC2CCCCC2)c(OC)cc1Cl`
Solution: class 1

Exercise: Outcome? `CC[C@H]1O[C@]2(CC[C@@H]1C)C[C@@H]1C[C@@H](C/C=C(\C)C[C@@H](C)/C=C/C=C3\CO[C@@H]4[C@H](O)C(C)=C[C@@H](C(=O)O1)[C@]34O)O2`
Solution: class 1

Exercise: Outcome? `N=C1N=C(N)c2cc3ccccc3cc21`
Solution: class 1

Exercise: Outcome? `CC(C)(C)c1ccc(C(=O)CCCN2CCC(OC(c3ccccc3)c3ccccc3)CC2)cc1`
Solution: class 1

Exercise: Outcome? `Cc1cc(O)c(C(C)(C)C)cc1Sc1cc(C(C)(C)C)c(O)cc1C`
Solution: class 1

Exercise: Outcome? `CC(C)=CCOc1ccc(/C=C/C(=O)c2ccc(OCC=C(C)C)cc2OCC(=O)O)cc1`
Solution: class 0

Exercise: Outcome? `CC(C)(C)C(=O)OCOC(=O)[C@@H]1N2C(=O)[C@@H](NC(=O)[C@H](N)c3ccccc3)[C@H]2SC1(C)C`
Solution: class 0

Exercise: Outcome? `O=C(O)c1ccc(Cl)c(Cl)c1`
Solution: class 0

Exercise: Outcome? CCOc1nc2cccc(C(=O)OC(C)OC(=O)OC3CCCCC3)c2n1Cc1ccc(-c2ccccc2-c2nn[nH]n2)cc1 (configuration not stated)
Solution: class 1

Exercise: Outcome? `CCCC(c1cc(C(C)(C)C)c(O)cc1C)c1cc(C(C)(C)C)c(O)cc1C`
Solution: class 1

Exercise: Outcome? `COc1c(C)c2c(c(O)c1C/C=C(\C)CCC(=O)O)C(=O)OC2`
Solution: class 1

Exercise: Outcome? `NC(=O)CC[C@@H]1NC(=O)[C@H](Cc2ccccc2)NC(=O)[C@H](Cc2ccc(O)cc2)NC(=O)CCSSC[C@@H](C(=O)N2CCC[C@H]2C(=O)N[C@@H](CCCN=C(N)N)C(=O)NCC(N)=O)NC(=O)[C@H](CC(N)=O)NC1=O`
Solution: class 0

Exercise: Outcome? `CCCCN1CCCC[C@H]1C(=O)Nc1c(C)cccc1C`
Solution: class 0

Exercise: Outcome? `CCOC(=O)O[C@H](C)OC(=O)c1ccc2c(c1)cc(C(=O)NC1CCN(C(C)C)CC1)n2Cc1cc(-c2ccc(Cl)s2)on1`
Solution: class 1

Exercise: Outcome? `O=CC=C(c1ccccc1)c1ccccc1`
Solution: class 0

Exercise: Outcome? `CCCCCCCCCCCC[N+](C)(C)CCCCCCCCCCCC`
Solution: class 1

Exercise: Outcome? `O=[N+]([O-])c1ccccc1Nc1ccccc1`
Solution: class 0
